Every entry's value here was drawn from ChEMBL document CHEMBL5260815.

molecular target: O-phosphoserine sulfhydrylase (Mycobacterium tuberculosis (strain ATCC 25618 / H37Rv)); experiment: Inhibition of Mycobacterium tuberculosis CysM
Sequence (P9WP53 whole entry): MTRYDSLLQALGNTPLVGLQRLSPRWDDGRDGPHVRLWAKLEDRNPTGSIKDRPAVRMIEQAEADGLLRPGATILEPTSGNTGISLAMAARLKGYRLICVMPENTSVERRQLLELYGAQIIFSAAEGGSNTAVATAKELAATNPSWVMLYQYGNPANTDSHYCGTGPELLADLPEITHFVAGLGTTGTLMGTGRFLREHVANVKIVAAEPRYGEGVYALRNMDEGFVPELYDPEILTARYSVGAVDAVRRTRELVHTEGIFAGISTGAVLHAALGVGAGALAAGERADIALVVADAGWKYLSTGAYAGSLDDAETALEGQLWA
Reported Property: IC50 (nM)

O=C(Nc1cccc(C(=O)O)c1)Nc1ccc(Cl)c(Cl)c1 : 480

###

Known pKd of a selection of compounds
molecular target: O-acetylserine sulfhydrylase (Mycobacterium tuberculosis, UniProt P9WP55); assay: Inhibition of hexahistidine-tagged recombinant Mycobacterium tuberculosis CysK1 expressed in Escherichia coli BL21(DE3) assessed as dissociation constant using PLP as substrate incubated for 5 mins by fluorescence analysis
pKd: −log10 of the molar value.
Reported Property: pKd

O=C(Nc1ccc(Cl)c(Cl)c1)Nc1ccc(O)c(C(=O)O)c1 : 4.12
O=C(Nc1cccc(C(=O)O)c1)Nc1ccc(Cl)c(Cl)c1 : 3.62
O=C(Nc1cccc(C(=O)O)c1)Nc1cccc(-c2ccccc2)c1 : 4.01
O=C(O)c1cccc(NS(=O)(=O)c2cccc(-c3ccc(Cl)c(Cl)c3)c2)c1 : 3.96
COc1ccc(OC)c(NC(=O)Nc2ccccc2C(=O)O)c1 : 4.22
